- measured_on: CYP3A4 (Homo sapiens)
- Construct: utilizes human liver microsomes together with isoform-specific clinical drug probes; from tissue; host or cells: human liver microsomes
- assay_details: High density DDI 3 μM cocktail screen in human liver microsomes, midazolam probe
- Assay type: in vitro ADME
- run_parameters: human, liver microsomes, probe midazolam, read-out: % inhibition 3A4 @ 3 μM
This section presents molecules with their documented inhibition at 3 µM values.

molecule	inhibition at 3 µM / %
CN(C)C(=O)N1CCN(C(=O)[C@@H]2CN(c3ccc(C#N)nn3)C[C@H]2c2ccc(Cl)cn2)CCC[C@H]1c1ccc(Cl)cc1 [Example 45]	75.8
COC(=O)N1CCN(C(=O)[C@@H]2CN(c3ccc4nncn4n3)C[C@H]2c2ccc(Cl)cn2)CCC[C@@H]1c1ccc(Cl)cc1 [Example 51]	75.2
COc1ccc([C@@H]2CN(c3ccc(=O)[nH]n3)C[C@H]2C(=O)N2CCCC(c3ccc(Cl)cc3)N(S(C)(=O)=O)CC2)c(F)c1 (mixture of isomers) [Example 111]	66.5

----------
Listed here are molecules together with their documented inhibition at 3 µM.
- measured_on: CYP3A4 (Homo sapiens, UniProt P08684)
- Construct: utilizes human liver microsomes together with isoform-specific clinical drug probes; from tissue; host or cells: human liver microsomes
- Sequence (P08684 whole entry, canonical isoform): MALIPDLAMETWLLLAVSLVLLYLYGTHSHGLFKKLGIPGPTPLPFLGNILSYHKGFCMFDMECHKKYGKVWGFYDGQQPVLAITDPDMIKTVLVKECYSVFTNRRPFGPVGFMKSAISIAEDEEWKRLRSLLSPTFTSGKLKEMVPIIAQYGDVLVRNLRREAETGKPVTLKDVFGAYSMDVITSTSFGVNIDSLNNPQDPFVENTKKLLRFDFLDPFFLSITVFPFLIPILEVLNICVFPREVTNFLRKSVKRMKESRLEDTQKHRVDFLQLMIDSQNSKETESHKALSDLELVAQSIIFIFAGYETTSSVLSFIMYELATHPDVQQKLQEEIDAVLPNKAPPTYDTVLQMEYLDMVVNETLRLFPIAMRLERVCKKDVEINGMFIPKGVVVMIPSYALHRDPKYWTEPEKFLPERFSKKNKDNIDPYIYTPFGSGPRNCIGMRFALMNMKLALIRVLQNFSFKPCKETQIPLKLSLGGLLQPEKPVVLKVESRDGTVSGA
- assay_details: High density DDI 3 μM cocktail screen in human liver microsomes, midazolam probe
- Format: in vitro ADME
- run_parameters: human, liver microsomes, probe midazolam, read-out: % inhibition 3A4 @ 3 μM
- Description: High Density Drug-Drug Interactions (DDI) 3 μM Cocktail Screen […] The substrate cocktail approach for P450 DDI utilizes human liver microsomes together with isoform-specific clinical drug probes and permits the simultaneous measurement of the inhibition of P450 1A2, 2C9, 2D6 & 3A4 activities in a single incubation. […] This method has been thoroughly tested and evaluated using standard compounds. […]
property_measured: inhibition at 3 µM (%)

> print(dat)
                                    molecule  value.units  reported
 1  CC(=O)N1CCN(C(=O)[C@@H]2CN(c3ccc(C#N)nn3)C[C@H]2c2ccc(F)cc2F)CCCC1c1ccccc1F (mixture of isomers)            %        60
 2  COC(=O)N1CCN(C(=O)[C@@H]2CN(C(C)(C)C)C[C@H]2c2ccc(F)cc2F)CCCC1c1ccccc1 (mixture of isomers)            %        47
 3  COC(=O)N1CCN(C(=O)[C@@H]2CN(c3cccnn3)C[C@H]2c2ccc(F)cc2F)CCC1c1ccccc1 (mixture of isomers)            %      42.5
 4  COc1cccc(C2CCCN(C(=O)[C@@H]3CN(c4ccc(C#N)nn4)C[C@H]3c3ccc(F)cc3F)CCN2C(C)=O)c1 (mixture of isomers)            %      36.5
 5  CS(=O)(=O)N1CCN(C(=O)[C@@H]2CN(c3cccnn3)C[C@H]2c2ccc(F)cc2F)CCCC1c1ccc(Cl)cc1 (mixture of isomers)            %        88
 6  COc1ccc([C@@H]2CN(c3ccc(=O)n(C)n3)C[C@H]2C(=O)N2CCC[C@@H](c3ccc(Cl)cc3)N(C(C)=O)CC2)c(F)c1            %      25.7
 7  COc1ccc([C@@H]2CN(c3ccc(C#N)nn3)C[C@H]2C(=O)N2CCC[C@@H](c3ccc(Cl)cc3)N(C(=O)C(C)C)CC2)c(F)c1            %      43.4
 8  COCC(=O)N1CCN(C(=O)[C@@H]2CN(C(C)(C)C)C[C@H]2c2ccc(F)cc2F)CCC[C@H]1c1ccc(Cl)cc1            %      29.1
 9  COC(=O)N1CCN(C(=O)[C@@H]2CN(c3ccc(C#N)nn3)C[C@H]2c2ccc(F)cc2F)CCCC1c1ccc(OC)cc1 (mixture of isomers)            %      61.5
10  COc1ccc(C2CCCN(C(=O)[C@@H]3CN(c4ccc(C#N)nn4)C[C@H]3c3ccc(F)cc3F)CCN2C(C)=O)cc1 (mixture of isomers)            %        63
11  Cn1nc(N2C[C@@H](C(=O)N3CCC[C@@H](c4ccc(Cl)cc4)N(C(=O)C4CC4)CC3)[C@H](c3ccc(F)cc3F)C2)ccc1=O            %      69.2
12  CC(C)(C)N1C[C@@H](C(=O)N2CCC[C@@H](c3ccc(Cl)cc3)N(C(=O)N3CCOCC3)CC2)[C@H](c2ccc(F)cc2F)C1            %      27.3
13  COc1ccc([C@@H]2CN(c3ccc(=O)n(C)n3)C[C@H]2C(=O)N2CCC[C@@H](c3ccc(Cl)cc3)N(C(=O)C3CC3)CC2)c(F)c1            %      60.8
14  CC(=O)N1CCN(C(=O)[C@@H]2CN(c3ccc4nncn4n3)C[C@H]2c2ccc(Cl)cn2)CCC[C@H]1c1ccc(Cl)cc1            %      54.2
15  CCCC(=O)N1CCN(C(=O)[C@@H]2CN(C(C)(C)C)C[C@H]2c2ccc(F)cc2F)CCC[C@H]1c1ccc(Cl)cc1            %      48.8
16  COC(=O)N1CCN(C(=O)[C@@H]2CN(c3ccc(=O)n(C)n3)C[C@H]2c2ccc(F)cc2F)CCC[C@H]1c1ccc(Cl)cc1            %      54.2
17  COc1ccc([C@@H]2CN(c3ccc(C#N)nn3)C[C@H]2C(=O)N2CCC[C@@H](c3ccc(Cl)cc3)N(C(=O)C3CC3)CC2)c(F)c1            %      56.2
